target-entity: T1, human MSLN-R1-his protein (human, UniProt Q13421 296-390)
T1 construct: Made in HEK293E cells, purified on nickel column; also called hMSLN-R1-his; human MSLN-R1 protein; not shown: His tag
T1 chain: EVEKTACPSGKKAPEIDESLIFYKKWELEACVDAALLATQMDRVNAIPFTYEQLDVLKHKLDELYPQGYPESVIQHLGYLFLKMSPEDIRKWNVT
test-description: ELISA, coated antigen, antibody 2 nM
measured-property: OD450
Just the number.

Reference set (2 entries):
- S009-F7.18.10 chimeric antibody (antibody, human IgG1, kappa, V domains shown, Human-murine chimeric antibody, human IgG1/kappa constant regions) VH: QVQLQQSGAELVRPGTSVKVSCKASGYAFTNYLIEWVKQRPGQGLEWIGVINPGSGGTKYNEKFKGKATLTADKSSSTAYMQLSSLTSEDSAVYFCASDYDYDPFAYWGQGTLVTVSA VL: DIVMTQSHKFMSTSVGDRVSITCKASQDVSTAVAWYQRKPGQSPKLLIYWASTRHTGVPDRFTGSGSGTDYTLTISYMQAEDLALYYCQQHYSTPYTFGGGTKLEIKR: 2.45
- S009-F7.23.19 chimeric antibody (antibody, human IgG1, kappa, V domains shown, Human-murine chimeric antibody, human IgG1/kappa constant regions) VH: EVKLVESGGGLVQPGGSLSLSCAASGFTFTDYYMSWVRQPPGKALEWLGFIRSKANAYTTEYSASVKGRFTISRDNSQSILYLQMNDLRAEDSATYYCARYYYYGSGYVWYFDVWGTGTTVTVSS VL: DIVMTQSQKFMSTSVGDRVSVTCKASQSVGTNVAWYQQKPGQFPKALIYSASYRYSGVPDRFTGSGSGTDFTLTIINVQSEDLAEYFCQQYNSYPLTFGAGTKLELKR: 0.05

Task: What value of OD450 has been recorded for this entry: S009-F7.44.20 chimeric antibody (antibody, human IgG1, kappa, V domains shown, Human-murine chimeric antibody, human IgG1/kappa constant regions) VH: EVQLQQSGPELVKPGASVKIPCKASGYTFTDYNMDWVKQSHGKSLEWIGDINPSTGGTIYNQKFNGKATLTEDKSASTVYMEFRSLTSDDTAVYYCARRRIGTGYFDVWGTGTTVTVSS VL: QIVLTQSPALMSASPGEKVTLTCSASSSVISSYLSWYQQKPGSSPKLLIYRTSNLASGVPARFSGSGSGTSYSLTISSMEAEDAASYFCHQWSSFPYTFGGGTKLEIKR
Result: 0.04

Where do these numbers come from? They come from patent US20250250357A1.
